assay: Histimine (% vs. 48/40)
Where a SMILES comes first, the peptide text is derived from it. [ ]: non-standard residue; d: D form. The star is where a group is joined. Palmitoyl = CCCCCCCCCCCCCCCC(=O)*
In this section, each of the compounds is paired with its reported Histimine (% vs. 48/40).
Report as a plain number; the unit % is understood.

CCCCCCCCCCCCCCCC(=O)N[C@H](C(=O)N[C@H](C(=O)N[C@@H](Cc1ccccc1)C(=O)N[C@@H](CCCNC(=N)N)C(=O)N[C@@H](CO)C(=O)N[C@@H](CO)C(=O)N[C@@H](CCC(=O)O)C(=O)N[C@H](CCCCN)C(=O)N[C@@H](CCCNC(=N)N)C(=O)N[C@@H](CCC(N)=O)C(=O)N[C@@H](CO)C(=O)N[C@@H](C)C(=O)N[C@@H](CC(=O)O)C(=O)N[C@H](C(=O)N[C@@H](Cc1ccccc1)C(=O)N[C@H](C(N)=O)[C@@H](C)CC)[C@@H](C)CC)C(C)C)[C@@H](C)O [Compound 27] (Palmitoyl-TVFRSSE[dK]RQSADIFI-NH2) = 4

Now examine the next entry.
IN: Bench note: what Histimine (% vs. 48/40) did CCCCCCCCCCCCCCCC(=O)N[C@H](C(=O)N[C@H](C(=O)N[C@@H](Cc1ccccc1)C(=O)N[C@@H](CCCNC(=N)N)C(=O)N[C@@H](CO)C(=O)N[C@@H](CO)C(=O)N[C@@H](CCC(=O)O)C(=O)N[C@H](CCCCN)C(=O)N[C@@H](CCCNC(=N)N)C(=O)N[C@@H](CCCNC(=N)N)C(=O)N[C@@H](CO)C(=O)N[C@@H](C)C(=O)N[C@@H](CC(=O)O)C(=O)N[C@H](C(=O)N1CCC[C@H]1C(=O)N[C@H](C(N)=O)[C@@H](C)CC)[C@@H](C)CC)C(C)C)[C@@H](C)O [Compound 55] (Palmitoyl-TVFRSSE[dK]RRSADIPI-NH2) show?
OUT: 33
